This section presents molecules with their documented IC50 values.
- Experimental System: electric eel acetylcholinesterase (eeAChE) (Electrophorus electricus)
- Test Name: biochemical
- Format: biochemical
- Set-up: purchased Sigma, St. Louis, MO, USA
- Test Conditions: concentration inducing 50% inhibition of enzyme activity; mean ± SEM of three independent measurements; / = no activity; read-out: eeAChE IC50

Before answering, review these 3 worked examples.
Molecule | Result
Cc1ccc(C(C)C)cc1.Cc1cccc(=S)n1[O-].[Cl-].[Ru+2] [Compound 1e] | 5.1 µM
Cc1ccc(C(C)C)cc1.[Cl][Ru+].[O-]n1ccccc1=S [Compound 1a] | 7.8 µM
Cc1ccc(C(C)C)cc1.Cc1cccn([O-])c1=S.[Cl-].[Ru+2] [Compound 1b] | 10.5 µM

The value of IC50 recorded for Cc1ccc(C(C)C)cc1.Cc1ccn([O-])c(=S)c1.[Cl-].[Ru+2] [Compound 1c] when tested on electric eel acetylcholinesterase (eeAChE) (Electrophorus electricus) reads 9.5 µM

Item Cc1ccc(=S)n([O-])c1.Cc1ccc(C(C)C)cc1.[Cl-].[Ru+2] [Compound 1d] was tested on electric eel acetylcholinesterase (eeAChE) (Electrophorus electricus); the reported IC50 is 6.6 µM

====

- Experimental System: horse serum butyrylcholinesterase (hsBuChE) (Equus caballus)
- Test Name: biochemical
- Assay type: biochemical
- Set-up: purchased Sigma, St. Louis, MO, USA; host or cells: horse serum
Quantity Measured: pIC50
By convention, pIC50 is the negative base-10 log of a molar concentration.

Item: CN(C)C(=O)Oc1cccc([N+](C)(C)C)c1 [Neostigmine bromide, reference compound] | pIC50: 4.43

====

- Experimental System: horse serum butyrylcholinesterase (hsBuChE) (Equus caballus, UniProt P81908)
- Sequence (P81908 whole entry): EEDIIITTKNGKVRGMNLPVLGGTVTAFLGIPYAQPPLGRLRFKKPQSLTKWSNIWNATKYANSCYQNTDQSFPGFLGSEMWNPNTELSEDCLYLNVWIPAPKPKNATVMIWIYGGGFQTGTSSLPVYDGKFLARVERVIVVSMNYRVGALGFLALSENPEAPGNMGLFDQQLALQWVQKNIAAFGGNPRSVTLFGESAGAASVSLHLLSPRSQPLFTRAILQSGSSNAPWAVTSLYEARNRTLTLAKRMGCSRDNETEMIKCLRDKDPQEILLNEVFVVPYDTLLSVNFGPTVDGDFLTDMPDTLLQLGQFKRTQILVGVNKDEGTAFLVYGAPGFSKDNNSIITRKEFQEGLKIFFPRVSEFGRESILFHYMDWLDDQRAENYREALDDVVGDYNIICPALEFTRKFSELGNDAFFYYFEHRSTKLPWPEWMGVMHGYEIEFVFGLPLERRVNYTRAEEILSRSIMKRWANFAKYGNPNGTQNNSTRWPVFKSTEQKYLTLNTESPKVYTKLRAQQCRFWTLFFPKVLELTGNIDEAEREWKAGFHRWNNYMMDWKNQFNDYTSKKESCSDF
- Test Name: biochemical
- Assay type: biochemical
- Set-up: purchased Sigma, St. Louis, MO, USA; host or cells: horse serum
- Test Conditions: concentration inducing 50% inhibition of enzyme activity; mean ± SEM of three independent measurements; / = no activity; read-out: hsBuChE IC50
Quantity Measured: pIC50
Keep it numeric: pIC50 is minus log10 of the concentration in mol/L.

Consider the worked cases shown below.
Compound | pIC50
Cc1ccc(C(C)C)cc1.[Cl][Ru+].[O-]n1ccccc1=S [Compound 1a] | 5.64
On1cc2ccccc2cc1=S [h, 2-Hydroxyisoquinoline-3-(2H)-thione] | 4.28
Cc1ccc(C(C)C)cc1.[Cl][Ru+].[O-]n1ccc2ccccc2c1=S [Compound 1f] | 5.89
Cc1ccc(C(C)C)cc1.Cc1cccc(=S)n1[O-].[Cl-].[Ru+2] [Compound 1e] | 6.15
Cc1ccc(=S)n([O-])c1.Cc1ccc(C(C)C)cc1.[Cl-].[Ru+2] [Compound 1d] | 5.72

Per the records, this compound ( Cc1ccc(C(C)C)cc1.Cc1ccn([O-])c(=S)c1.[Cl-].[Ru+2] [Compound 1c] ) has pIC50 equal to 5.57

The reported pIC50 of the compound Cc1ccc(C(C)C)cc1.Cc1cccn([O-])c1=S.[Cl-].[Ru+2] [Compound 1b] was 5.92

====

- Experimental System: electric eel acetylcholinesterase (eeAChE) (Electrophorus electricus, UniProt O42275)
- Sequence (O42275 24-633): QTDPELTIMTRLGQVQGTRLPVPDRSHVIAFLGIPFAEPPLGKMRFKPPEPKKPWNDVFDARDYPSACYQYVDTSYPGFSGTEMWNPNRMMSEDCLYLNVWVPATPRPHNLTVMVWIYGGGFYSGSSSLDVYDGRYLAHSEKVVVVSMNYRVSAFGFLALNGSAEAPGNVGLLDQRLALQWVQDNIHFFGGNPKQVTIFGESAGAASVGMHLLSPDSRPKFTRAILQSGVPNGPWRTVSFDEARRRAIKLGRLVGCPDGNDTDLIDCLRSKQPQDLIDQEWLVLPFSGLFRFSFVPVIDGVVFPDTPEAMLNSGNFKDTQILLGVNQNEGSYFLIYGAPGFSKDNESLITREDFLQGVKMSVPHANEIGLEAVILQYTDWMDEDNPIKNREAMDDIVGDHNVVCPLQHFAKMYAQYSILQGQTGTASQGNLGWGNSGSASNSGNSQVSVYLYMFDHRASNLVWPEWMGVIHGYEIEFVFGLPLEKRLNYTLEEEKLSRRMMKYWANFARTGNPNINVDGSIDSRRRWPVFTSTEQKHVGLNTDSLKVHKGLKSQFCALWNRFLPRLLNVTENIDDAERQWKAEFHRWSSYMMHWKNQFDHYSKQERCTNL
- Test Name: biochemical
- Assay type: biochemical
- Set-up: purchased Sigma, St. Louis, MO, USA
- Test Conditions: concentration inducing 50% inhibition of enzyme activity; mean ± SEM of three independent measurements; / = no activity; read-out: eeAChE IC50
pIC50: −log10 of the molar value.
Quantity Measured: pIC50

Compound | pIC50
On1c(=S)ccc2ccccc21 [g, 1-Hydroxyquinoline-2-(1H)-thione] | < 4.00
On1cc2ccccc2cc1=S [h, 2-Hydroxyisoquinoline-3-(2H)-thione] | < 4.00

Cc1ccc(C(C)C)cc1.[Cl][Ru+].[O-]n1ccc2ccccc2c1=S [Compound 1f] on electric eel acetylcholinesterase (eeAChE) (Electrophorus electricus, UniProt O42275) gives pIC50 = 5.09
